Field: PH 2 h. Provide a value for each of the compounds that follow.
procedure.details: Solubility in water and bio-relevant media at 37° C. (HPLC of filtrate, pH of filtrate, XRPD of filter cake)
Type: physicochemical
measurement.conditions: pH of the filtrate, FaSSIF, 2 h

Could you tell me which PH 2 h is on file for Cc1nn(-c2cc(Cl)c(Oc3cc(C(C)C)c(=O)[nH]n3)c(Cl)c2)c(=O)[n-]c1=O.[K+] [Potassium salt Form 2] ?
7.49

Consider the compound shown here: Cc1nn(-c2cc(Cl)c(Oc3cc(C(C)C)c(=O)[nH]n3)c(Cl)c2)c(=O)[n-]c1=O.[Na+] [Sodium salt Form A] What is its recorded PH 2 h?
7.33

Tell me the measured PH 2 h of Cc1nn(-c2cc(Cl)c(Oc3cc(C(C)C)c(=O)[nH]n3)c(Cl)c2)c(=O)[n-]c1=O.[K+] [Potassium salt Form 1] , please.
7.36

What value of measured PH 2 h is listed for Cc1nn(-c2cc(Cl)c(Oc3cc(C(C)C)c(=O)[nH]n3)c(Cl)c2)c(=O)[nH]c1=O [Free acid Form I] ?
6.60

###

procedure.details: Solubility in water and bio-relevant media at 37° C. (HPLC of filtrate, pH of filtrate, XRPD of filter cake)
Type: physicochemical
measurement.conditions: pH of the filtrate, SIF, 0.5 h
Kindly state PH 0.5 h for each of the entries shown.
Simply state the number, no unit and no words.

PH 0.5 h for Cc1nn(-c2cc(Cl)c(Oc3cc(C(C)C)c(=O)[nH]n3)c(Cl)c2)c(=O)[nH]c1=O [Free acid Form I] ?
6.89

Bench note: what PH 0.5 h did Cc1nn(-c2cc(Cl)c(Oc3cc(C(C)C)c(=O)[nH]n3)c(Cl)c2)c(=O)[n-]c1=O.[K+] [Potassium salt Form 1] show?
7.52

Return reported PH 0.5 h; argument: Cc1nn(-c2cc(Cl)c(Oc3cc(C(C)C)c(=O)[nH]n3)c(Cl)c2)c(=O)[n-]c1=O.[Na+] [Sodium salt Form A]
7.23

What PH 0.5 h value was documented for this compound, Cc1nn(-c2cc(Cl)c(Oc3cc(C(C)C)c(=O)[nH]n3)c(Cl)c2)c(=O)[n-]c1=O.[K+] [Potassium salt Form 2] ?
7.43

###

procedure.details: Solubility in water and bio-relevant media at 37° C. (HPLC of filtrate, pH of filtrate, XRPD of filter cake)
Type: physicochemical
measurement.conditions: filter cake obtained at 2 or 24 hours, SIF
result.type: XRPD

molecule | result
Cc1nn(-c2cc(Cl)c(Oc3cc(C(C)C)c(=O)[nH]n3)c(Cl)c2)c(=O)[n-]c1=O.[Na+] [Sodium salt Form A] | Free acid
Cc1nn(-c2cc(Cl)c(Oc3cc(C(C)C)c(=O)[nH]n3)c(Cl)c2)c(=O)[n-]c1=O.[K+] [Potassium salt Form 2] | Free acid
Cc1nn(-c2cc(Cl)c(Oc3cc(C(C)C)c(=O)[nH]n3)c(Cl)c2)c(=O)[n-]c1=O.[K+] [Potassium salt Form 1] | Free acid

###

procedure.details: Solubility in water and bio-relevant media at 37° C. (HPLC of filtrate, pH of filtrate, XRPD of filter cake)
Format: physicochemical
measurement.conditions: FeSSIF (Fed State Simulated Intestinal Fluid), 37 °C, fessif, thermodynamic from solid, FeSSIF, 37° C., 24 h; read-out: Solubility (mg/mL) 24 h
Protocol: Solubility of Form I of free acid, Form 1 and Form 2 of potassium salt, and Form A of sodium salt were tested in water and in bio-relevant media of Simulated Intestinal Fluid (SIF), Simulated Gastric Fluid (SGF), Fasted State Simulated Intestinal Fluid (FaSSIF), and Fed State Simulated Intestinal Fluid (FeSSIF) at 37° C. up to 24 hours. About 12 mg of the sample was weighed into sample vials and then 1.5 mL of each media was added to make suspensions respectively. […]
Provide the recorded solubility at 24 h for the entries that follow.

Using the record for Cc1nn(-c2cc(Cl)c(Oc3cc(C(C)C)c(=O)[nH]n3)c(Cl)c2)c(=O)[n-]c1=O.[Na+] [Sodium salt Form A] , report its solubility at 24 h.
0.012 mg/mL

Given the entry Cc1nn(-c2cc(Cl)c(Oc3cc(C(C)C)c(=O)[nH]n3)c(Cl)c2)c(=O)[n-]c1=O.[K+] [Potassium salt Form 1] , report its measured solubility at 24 h.
0.013 mg/mL
